- MEASUREMENT NOTES: Oral bioavailability in rat
- Format: ADME, organism-based
- PROTOCOL CONDITIONS: in vivo
MEASUREMENT KIND: bioavailability (%)
Give the value in % but do not write % after it.

In: Output measured bioavailability for this item: "CNC(=O)O[C@H]1COc2ccc(N3CCN(C4COC4)CC3)cc2[C@@H]1NC(=O)c1ccc(F)cc1"
Out: 92

* * *

- SYSTEM UNDER TEST: Cathepsin S (Homo sapiens, UniProt P25774)
- MEASUREMENT NOTES: Binding affinity to recombinant Cathepsin S (unknown origin) expressed in Escherichia coli using Z-Val-Val-Arg-AMC as substrate assessed as inhibition constant for slowly reversible binding by fluorescence based assay
- Sequence (P25774 whole entry): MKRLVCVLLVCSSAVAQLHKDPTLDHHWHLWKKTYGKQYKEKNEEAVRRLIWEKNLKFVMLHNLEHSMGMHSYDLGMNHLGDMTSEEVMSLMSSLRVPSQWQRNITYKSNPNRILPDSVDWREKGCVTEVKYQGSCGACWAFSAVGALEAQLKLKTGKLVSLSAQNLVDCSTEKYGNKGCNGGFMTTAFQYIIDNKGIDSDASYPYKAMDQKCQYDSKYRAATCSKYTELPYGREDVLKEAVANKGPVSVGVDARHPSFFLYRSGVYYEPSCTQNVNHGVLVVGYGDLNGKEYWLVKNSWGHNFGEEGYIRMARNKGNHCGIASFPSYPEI
Starred links: 1 amine or outer side, 2 acyl side, 3 side chain; linkers in the order of their positions; H or OH if unused. Non-standard residues stand in square brackets, D forms with d. Residues, ends and D or L forms follow the SMILES beside them. *: point of attachment. Cha = N[C@@H](CC1CCCCC1)C(=O)O; Morpholide = C1CN(*)CCO1; CO = O=C([*:1])[*:2]; Bn = c1ccc(C*)cc1
Below is a list of entries, each paired with its recorded pKi value.
Units for pKi: none; it is -log10 of a concentration expressed in mol/L.

O=C[C@H](COCc1ccccc1)NC(=O)[C@H](CC1CCCCC1)NC(=O)N1CCOCC1 ({Morpholide-CO}-[Cha]-Ser(Bn)-aldehyde)    10.80

Please find the next compound below.
In: Output measured pKi for this item: "O=C(CS(=O)(=O)c1ccccc1)[C@H](COCc1ccccc1)NC(=O)[C@H](CC1CCCCC1)NC(=O)N1CCOCC1"
Out: 7.37

* * *

- SYSTEM UNDER TEST: Cathepsin S (Homo sapiens)
- MEASUREMENT NOTES: Irreversible binding affinity to recombinant Cathepsin S (unknown origin) expressed in Escherichia coli incubated for 60 mins followed by substrate addition by fluorescence based dilution assay
- Sequence (P25774 115-331 limits assumed): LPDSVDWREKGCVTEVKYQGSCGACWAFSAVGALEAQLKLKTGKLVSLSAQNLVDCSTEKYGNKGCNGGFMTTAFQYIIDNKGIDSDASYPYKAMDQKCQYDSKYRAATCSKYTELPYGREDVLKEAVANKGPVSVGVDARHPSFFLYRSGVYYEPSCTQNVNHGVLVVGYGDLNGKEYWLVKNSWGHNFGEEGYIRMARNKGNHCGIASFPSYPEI
Activity calls are given as the source filed them. The rule behind the calls is not given here.
Please reply with one of these outcomes: active, inactive

O=C(CS(=O)(=O)c1ccccc1)[C@H](COCc1ccccc1)NC(=O)[C@H](CC1CCCCC1)NC(=O)N1CCOCC1    inactive

In: Lab log entry: "C=CS(=O)(=O)C(=O)[C@H](COCc1ccccc1)NC(=O)[C@H](CC1CCCCC1)NC(=O)N1CCOCC1" — outcome as called in the assay?
Out: active

In: Lab log entry: "O=C(SCC(=O)[C@H](COCc1ccccc1)NC(=O)[C@H](CC1CCCCC1)NC(=O)N1CCOCC1)c1ccccc1" — outcome as called in the assay?
Out: inactive

In: Lab log entry: "CS(=O)(=O)C[C@H](N[C@@H](c1ccc(F)cc1)C(F)(F)F)C(=O)NC1(C#N)CC1" — outcome as called in the assay?
Out: inactive

In: Lab log entry: "O=C(OCC(=O)[C@H](COCc1ccccc1)NC(=O)[C@H](CC1CCCCC1)NC(=O)N1CCOCC1)c1ccccc1" — outcome as called in the assay?
Out: active

In: Lab log entry: "O=C(CO)[C@H](COCc1ccccc1)NC(=O)[C@H](CC1CCCCC1)NC(=O)N1CCOCC1" — outcome as called in the assay?
Out: inactive

* * *

- SYSTEM UNDER TEST: Cathepsin S (Homo sapiens)
- MEASUREMENT NOTES: Inhibition of recombinant Cathepsin S (unknown origin) expressed in Escherichia coli using Z-Val-Val-Arg-AMC as substrate by fluorescence based assay
Starred links: 1 amine or outer side, 2 acyl side, 3 side chain; linkers in the order of their positions; H or OH if unused. Non-standard residues stand in square brackets, D forms with d. Residues, ends and D or L forms follow the SMILES beside them. *: point of attachment. Cha = N[C@@H](CC1CCCCC1)C(=O)O; Morpholide = C1CN(*)CCO1; CO = O=C([*:1])[*:2]; Bn = c1ccc(C*)cc1; CH2Cl = ClC*
MEASUREMENT KIND: Ki (µM)
Give the value in µM but do not write µM after it.

N#CC1(NC(=O)[C@H](CC2CCCCC2)NC(=O)c2ccncc2)CC1    0.013
N#CC1(NC(=O)[C@H](CC2CCCCC2)N[C@@H](c2ccc(F)cc2)C(F)(F)F)CC1    0.02
N#C[C@H](CCc1ccccc1)NC(=O)[C@H](CC1CCCCC1)N[C@@H](c1ccc(F)cc1)C(F)(F)F    0.146
C=CS(=O)(=O)C(=O)[C@H](COCc1ccccc1)NC(=O)[C@H](CC1CCCCC1)NC(=O)N1CCOCC1    0.003
O=C(N/N=C/[C@H](COCc1ccccc1)NC(=O)[C@H](CC1CCCCC1)NC(=O)N1CCOCC1)c1ccccc1    0.0022
N#CC1(NC(=O)[C@H](CC2CCCCC2)NC(=O)N2CCOCC2)CC1    0.0015
N#C[C@H](CCc1ccccc1)NC(=O)[C@H](CC1CCCCC1)NC(=O)c1ccncc1    0.013
O=C(CO)[C@H](COCc1ccccc1)NC(=O)[C@H](CC1CCCCC1)NC(=O)N1CCOCC1    0.067

In: Output measured Ki for this item: "CS(=O)(=O)C[C@H](N[C@@H](c1ccc([N+](=O)[O-])cc1)C(F)(F)F)C(=O)N[C@H](C#N)COCc1ccccc1"
Out: 0.013

In: Output measured Ki for this item: "N#C[C@H](COCc1ccccc1)NC(=O)[C@H](CC1CCCCC1)NC(=O)C1CCOCC1"
Out: 0.061

In: Output measured Ki for this item: "CS(=O)(=O)C[C@H](N[C@@H](c1ccc(F)cc1)C(F)(F)F)C(=O)N[C@H](C#N)COCc1ccccc1"
Out: 0.0024

In: Output measured Ki for this item: "N#CC1(NC(=O)[C@H](CC2CCCCC2)NC(=O)C2CCOCC2)CC1"
Out: 0.117

In: Output measured Ki for this item: O=C(CCl)[C@H](COCc1ccccc1)NC(=O)[C@H](CC1CCCCC1)NC(=O)N1CCOCC1 ({Morpholide-CO}-[Cha]-Ser(Bn)-CH2Cl)
Out: 0.0005

In: Output measured Ki for this item: "CS(=O)(=O)C[C@H](N[C@@H](c1ccc([N+](=O)[O-])cc1)C(F)(F)F)C(=O)N[C@H](C#N)CCc1ccccc1"
Out: 0.0036

In: Output measured Ki for this item: "N#C[C@H](COCc1ccccc1)NC(=O)[C@H](CC1CCCCC1)N[C@@H](c1ccc(F)cc1)C(F)(F)F"
Out: 0.011

In: Output measured Ki for this item: "O=C(CS(=O)(=O)c1ccccc1)[C@H](COCc1ccccc1)NC(=O)[C@H](CC1CCCCC1)NC(=O)N1CCOCC1"
Out: 0.331

In: Output measured Ki for this item: "CS(=O)(=O)C[C@H](N[C@@H](c1ccc([N+](=O)[O-])cc1)C(F)(F)F)C(=O)NC1(C#N)CC1"
Out: 0.0078

The values you see were collected from ChEMBL document CHEMBL5532731.
